test system: SW480; assay: TCF/Wnt firefly luciferase reporter signal relative to plate median (fraction of plate median); higher = higher Wnt reporter signal; conditions: 10 µM; treatment time 24 h; reporter: 7TFP
Reported TCF/Wnt firefly luciferase reporter signal values follow for various compounds
Please give only the number in your answer, with no unit.

Would you please look over these solved cases?
COMPOUND	SYSTEM UNDER TEST	ENDPOINT RESULT
OCCn1cc(-c2ccc3c(c2)CC/C3=N\O)c(-c2ccncc2)n1	SW480	1.7
COc1ccc2c(OCc3nnc4ccc(-c5ccccc5)nn34)ccnc2c1	SW480	1.16
Nc1ncnc2c1c(-c1cccc(OCc3ccccc3)c1)cn2C1CC(CN2CCCC2)C1 (centres undefined)	SW480	0.895
Cc1cnc(NC(=O)Nc2cc(Br)c(C)cc2OC[C@@H]2CNCCO2)cn1	SW480	0.938
COc1ccc(S(=O)(=O)N(C(C)=O)c2ccccc2/C=C/c2cc[n+]([O-])cc2)cc1	SW480	0.7
CCN1CCN(Cc2ccc(-c3cc4c(N[C@H](C)c5ccccc5)ncnc4[nH]3)cc2)CC1	SW480	1.24

# value lookup — system SW480, readout TCF/Wnt firefly luciferase reporter signal, item `CNC(=O)CN1CCC(Oc2cc3c(Nc4cccc(Cl)c4F)ncnc3cc2OC)CC1`
0.849

Test system SW480; read-out TCF/Wnt firefly luciferase reporter signal; what value for Nc1ccc(-c2ccc3ncc4ccc(=O)n(-c5cccc(C(F)(F)F)c5)c4c3c2)cn1 [Torin 2] ?
0.817

Which measured TCF/Wnt firefly luciferase reporter signal belongs to `COCC(=O)NC/C=C/c1ccc2ncnc(Nc3ccc(Oc4ccc(C)nc4)c(C)c3)c2c1` , tested on SW480?
0.927

Reference source: the supplement of paper PMC6522484
